Biological target: UniProt P04406
Sequence (P04406 whole entry): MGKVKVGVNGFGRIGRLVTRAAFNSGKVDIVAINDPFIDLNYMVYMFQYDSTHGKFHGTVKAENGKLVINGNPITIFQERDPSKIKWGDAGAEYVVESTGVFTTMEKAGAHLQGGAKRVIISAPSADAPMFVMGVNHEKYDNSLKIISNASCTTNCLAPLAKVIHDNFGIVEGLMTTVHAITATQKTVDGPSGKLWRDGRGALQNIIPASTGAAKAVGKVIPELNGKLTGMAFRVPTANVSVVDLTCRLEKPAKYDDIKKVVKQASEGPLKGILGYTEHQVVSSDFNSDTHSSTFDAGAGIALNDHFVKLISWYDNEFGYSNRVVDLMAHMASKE
Parameter Measured: IC50

Compound: COc1cc(C)c(Cl)cc1S(=O)(=O)Nc1cccnc1
IC50: > 10 µM (inconclusive)
//
Compound: COc1ccc(S(=O)(=O)Nc2ccc3ccccc3c2)c(OC)c1
IC50: > 10 µM (inconclusive)
//
Compound: COc1cccc(CC(CC(=O)O)C(=O)O)c1 (centres undefined)
IC50: > 100 µM (not active)
//
Compound: COc1ccc(-c2cc(N)n(S(=O)(=O)c3c(F)c(F)c(F)c(F)c3F)n2)cc1OC
IC50: > 100 µM (not active)
//
Compound: CC(=O)Nc1nnc(SCc2cccc3ccccc23)[nH]1
IC50: > 100 µM (not active)
//
Compound: Cc1cccc2cc(/C=C3\N=C(c4ccccc4)OC3=O)c(N(C)C)nc12
IC50: > 100 µM (not active)

Please give IC50 for each item listed below.
1. O=C(CSc1n[nH]c(-c2ccccc2Cl)n1)Nc1ccccc1F
2. COc1cc(/C=C2/SC(=S)NC2=O)cc(Cl)c1OCc1ccc(Cl)cc1Cl
3. O=c1nc(NCCc2ccccc2)[nH]c(=O)n1-c1ccccc1

Key:
> 100 µM (not active)
> 100 µM (not active)
> 100 µM (not active)

Data credit: ChEMBL document CHEMBL1201862
